Values compiled from patent US8916599B2.

Target: recombinant human mPGES-1 (Homo sapiens, UniProt O14684)
Construct: made in house; host or cells: Rosetta E. coli (microsomal/membrane fraction)
Sequence (O14684 whole entry): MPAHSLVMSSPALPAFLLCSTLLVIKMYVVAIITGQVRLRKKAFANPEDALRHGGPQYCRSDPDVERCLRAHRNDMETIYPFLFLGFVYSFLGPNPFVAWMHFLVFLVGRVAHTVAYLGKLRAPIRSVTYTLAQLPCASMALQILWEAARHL
Experiment: mPGES-1 inhibition test (microsomes, PGH2 substrate, HTRF detection of PGE2)
Format: biochemical
Conditions: inhibition of mPGES-1 at 10 μM
Property: inhibition at 10 µM (%)

INSERT INTO results (molecule, units_label, number) VALUES
  ('CCNC(=O)c1cc(Br)c2c(c1)nc(Nc1c(Cl)cccc1Cl)n2C', '%', 71),
  ('Cn1c(Nc2c(F)cccc2F)nc2cc(C(=O)Nc3ccc(Br)cc3)ccc21', '%', 97),
  ('O=C(NC1CCCCCC1)c1ccc2[nH]c(Nc3c(Cl)cccc3Cl)nc2c1', '%', 100),
  ('CCOc1cc2c(cc1C(=O)NC1CCC3(CC1)CC3)nc(Nc1c(Cl)ccc(Cl)c1F)n2C', '%', 99),
  ('O=C(Nc1cc(Cl)ccn1)c1cc2[nH]c(Nc3c(Cl)cccc3Cl)nc2cc1F', '%', 100),
  ('CCOc1cc2[nH]c(Nc3c(Cl)ccc(Cl)c3F)nc2cc1C(=O)Nc1cccc(Cl)c1', '%', 90),
  ('O=C(Nc1nc2ccccc2[nH]1)c1ccc2[nH]c(Nc3c(Cl)cccc3Cl)nc2c1', '%', 92),
  ('Cc1ccc(NC(=O)c2ccc3[nH]c(Nc4c(Cl)cccc4Cl)nc3c2)nc1C', '%', 100),
  ('N#CC1(NC(=O)c2ccc3[nH]c(Nc4c(Cl)cccc4Cl)nc3c2)CCCCC1', '%', 86),
  ('O=C(Nc1cc(Cl)ccn1)c1ccc2c(c1)nc(Nc1c(Cl)cccc1Cl)n2C1CNC1', '%', 97),
  ('Cn1c(Nc2c(Cl)cccc2Cl)nc2cc(C(=O)NC3(C#N)CCCCC3)ccc21', '%', 100),
  ('Cn1c(Nc2c(Cl)cccc2Cl)nc2cc(C(=O)Nc3cc(Cl)ccn3)ccc21', '%', 100),
  ('COc1cc2c(cc1C(=O)NC1CCCCC1)nc(Nc1c(Cl)ccc(Cl)c1F)n2C', '%', 94),
  ('COc1cc2[nH]c(Nc3c(Cl)ccc(Cl)c3F)nc2cc1C(=O)Nc1ccc(Br)cc1', '%', 100),
  ('COc1cc2c(cc1C(=O)NCc1ncccc1C(F)(F)F)nc(Nc1c(Cl)cccc1Cl)n2C', '%', 100),
  ('Cn1c(Nc2c(Cl)cccc2Cl)nc2cc(C(=O)NC34CC5CC(CC(C5)C3)C4)c(F)cc21', '%', 98),
  ('O=C(Nc1ccc(Cl)c(F)c1)c1cc2nc(Nc3c(Cl)cccc3Cl)[nH]c2cc1F', '%', 98),
  ('O=C(Nc1ccc(Br)cc1)c1ccc2[nH]c(Nc3cccc(Cl)c3Cl)nc2c1', '%', 100),
  ('O=C(Nc1cc(Cl)ccn1)c1ccc2c(c1)nc(Nc1c(Cl)cccc1Cl)n2CCCO', '%', 93),
  ('O=C(NC1Cc2ccccc2C1)c1cc2nc(Nc3c(Cl)cccc3Cl)[nH]c2cc1F', '%', 100),
  ('Cc1cc(NC(=O)c2ccc3[nH]c(Nc4c(Cl)cccc4Cl)nc3c2)ncc1Br', '%', 99),
  ('O=C(Nc1ccc(Br)c(F)c1)c1cc2nc(Nc3c(Cl)cccc3Cl)[nH]c2cc1F', '%', 95),
  ('O=C(N[C@H]1CC[C@@H](C(F)(F)F)CC1)c1cc2nc(Nc3c(Cl)cccc3Cl)[nH]c2cc1F', '%', 94),
  ('Cn1c(Nc2c(Cl)cccc2Cl)nc2cc(C(=O)NC3CCCC(C(F)(F)F)C3)ccc21 (stereo not shown)', '%', 100),
  ('Cn1c(Nc2ccc(Cl)cc2Cl)nc2cc(C(=O)Nc3ccc(Br)cc3)ccc21', '%', 95);

====

Biological target: recombinant human mPGES-1 (Homo sapiens, UniProt O14684)
Construct: made in house; host or cells: Rosetta E. coli (microsomal/membrane fraction)
Assay: mPGES-1 inhibition test (microsomes, PGH2 substrate, HTRF detection of PGE2)
Assay type: biochemical
Conditions: inhibition of mPGES-1 at 10 μM
Property: inhibition at 10 µM (%)

INSERT INTO measurements (compound, number) VALUES
  ('O=C(Nc1ncccc1Cl)c1ccc2[nH]c(Nc3c(Cl)cccc3Cl)nc2c1 [Example 186]', 91),
  ('Cn1c(Nc2c(Cl)cccc2Cl)nc2cc(C(=O)N[C@H]3CC[C@@H](C(F)(F)F)CC3)c(F)cc21 [Example 170]', 100),
  ('Cn1c(Nc2c(F)cccc2Cl)nc2cc(C(=O)NCCCC3CC3)c(F)cc21 [Example 390]', 100),
  ('O=C(Nc1ccc(Br)cn1)c1ccc2[nH]c(Nc3c(Cl)cccc3Cl)nc2c1 [Example 303]', 90),
  ('O=C(NC1CCCCC1)c1ccc2nc(Nc3c(Cl)cccc3Cl)[nH]c2c1 [Example 137]', 100),
  ('CCCCCCNC(=O)c1cc2nc(Nc3c(Cl)cccc3Cl)n(C)c2cc1F [Example 373]', 100),
  ('CCC1CCC(NC(=O)c2cc3nc(Nc4c(Cl)cccc4Cl)n(C)c3cc2F)CC1 (stereo not shown) [Example 437]', 97),
  ('Cn1c(Nc2c(F)cccc2F)nc2cc(C(=O)NC3CCC(C)(C)CC3)ccc21 [Example 172]', 97),
  ('COc1cc2nc(Nc3c(Cl)cccc3Cl)[nH]c2cc1C(=O)NC1CCCCC1 [Example 199]', 100),
  ('CCCCCCCCNC(=O)c1cc2nc(Nc3c(Cl)cccc3Cl)n(C)c2cc1F [Example 166]', 100),
  ('O=C(Nc1ccc(Br)cc1)c1ccc2[nH]c(Nc3ccccc3Br)nc2c1 [Example 279]', 97),
  ('O=C(Nc1ncccc1C(F)(F)F)c1ccc2[nH]c(Nc3c(Cl)cccc3Cl)nc2c1 [Example 190]', 75),
  ('CC(=O)NCCn1c(Nc2c(Cl)cccc2Cl)nc2cc(C(=O)Nc3cc(Cl)ccn3)ccc21 [Example 278]', 92),
  ('Cn1c(Nc2c(Cl)cccc2Cl)nc2cc(C(=O)Nc3cc(N4CCCCC4)ccn3)c(F)cc21 [Example 533]', 91),
  ('CN(C)C(=O)c1ccc(Nc2nc3cc(C(=O)Nc4ccc(Br)cc4)ccc3n2C)c(Cl)c1 [Example 562]', 97),
  ('O=C(Nc1ccc(Br)cc1)c1cc2nc(Nc3c(Cl)cc(F)cc3Cl)[nH]c2cc1OCCF [Example 585]', 100),
  ('CNCCCn1c(Nc2c(Cl)cccc2Cl)nc2cc(C(=O)Nc3cc(Cl)ccn3)ccc21 [Example 266]', 100),
  ('O=C(NCc1cccc(C(F)(F)F)n1)c1ccc2[nH]c(Nc3c(Cl)cccc3Cl)nc2c1 [Example 223]', 87),
  ('CC(C)(C)[C@H]1CC[C@H](NC(=O)c2cc3nc(Nc4c(F)cccc4Cl)[nH]c3cc2F)CC1 [Example 357]', 100),
  ('Cn1c(Nc2c(Cl)cccc2Cl)nc2cc(C(=O)NC3CCC4(CC4)C3)c(F)cc21 (stereo not shown) [Example 415]', 100),
  ('Cn1c(Nc2c(Cl)cccc2Cl)nc2cc(C(=O)NC3CCCCC3O)ccc21 (stereo not shown) [Example 237]', 87),
  ('O=C(NCc1ccccn1)c1ccc2[nH]c(Nc3c(Cl)cccc3Cl)nc2c1 [Example 235]', 79),
  ('O=C(Nc1ccccn1)c1ccc2[nH]c(Nc3c(Cl)cccc3Cl)nc2c1 [Example 293]', 87),
  ('COCCCn1c(Nc2c(Cl)cccc2Cl)nc2cc(C(=O)Nc3cc(Cl)ccn3)ccc21 [Example 274]', 100),
  ('O=C(N[C@H]1CC[C@H](C(F)F)CC1)c1cc2nc(Nc3c(Cl)cccc3Cl)[nH]c2cc1F [Example 496]', 100),
  ('CCCCCNC(=O)c1cc2nc(Nc3c(Cl)cccc3Cl)n(C)c2cc1F [Example 391]', 100),
  ('O=C(NCC1CCCC1)c1ccc2[nH]c(Nc3c(Cl)cccc3Cl)nc2c1 [Example 219]', 100),
  ('Cn1c(Nc2c(F)cccc2Cl)nc2cc(C(=O)NC3CCCC(C)(C)C3)c(F)cc21 (stereo not shown) [Example 404]', 100);

====

Reported inhibition at 10 µM values follow for various compounds
Target: recombinant human mPGES-1 (Homo sapiens)
Construct: made in house; host or cells: Rosetta E. coli (microsomal/membrane fraction)
Test: mPGES-1 inhibition test (microsomes, PGH2 substrate, HTRF detection of PGE2)
Type: biochemical
Details: inhibition of mPGES-1 at 10 μM
Property: inhibition at 10 µM (%)

INSERT INTO measurements (smiles_notation, test_target, number) VALUES
  ('Cn1c(Nc2c(Cl)cccc2Cl)nc2cc(C(=O)NC3(C)CCCCC3)c(F)cc21', 'recombinant human mPGES-1 (Homo sapiens)', 100),
  ('Cn1c(Nc2c(Cl)ccc(Cl)c2F)nc2cc(C(=O)NC3CCC4(CC3)CC4)c(F)cc21', 'recombinant human mPGES-1 (Homo sapiens)', 94),
  ('N#Cc1ccnc(NC(=O)c2ccc3[nH]c(Nc4c(Cl)cccc4Cl)nc3c2)c1', 'recombinant human mPGES-1 (Homo sapiens)', 94),
  ('Cn1c(Nc2c(Cl)cccc2Cl)nc2cc(C(=O)NCCC3CC3)c(F)cc21', 'recombinant human mPGES-1 (Homo sapiens)', 95),
  ('Cn1c(Nc2c(Cl)cccc2Cl)nc2cc(C(=O)NC3CCC4(CC3)CC4)c(F)cc21', 'recombinant human mPGES-1 (Homo sapiens)', 100),
  ('Cc1nc(NC(=O)c2cc3nc(Nc4c(Cl)cccc4Cl)n(C)c3cc2F)cc2c1CCCC2', 'recombinant human mPGES-1 (Homo sapiens)', 96),
  ('O=C(Nc1ccccc1)c1ccc2[nH]c(Nc3c(F)cccc3Cl)nc2c1', 'recombinant human mPGES-1 (Homo sapiens)', 91);
